assay.details: Equilibrium solubility test (24 h, HPLC)
Type: physicochemical
recorded.conditions: fassgf or other biorelevant, thermodynamic from solid; pH 6.8 simulated intestinal fluid, 37° C., 100 rpm, 24 h
recorded.metric: solubility thermodynamic at 24 h (µg/mL)
// return numeric value only (unit: µg/mL, not printed)

**Q:** I'd like to know its solubility thermodynamic at 24 h. The compound in question is CC1CN(C(=O)c2cc(Cc3n[nH]c(=O)c4ccccc34)ccc2F)Cc2nnc(C(F)(F)F)n21 (stereo not shown) [SOMCL-9112]
**A:** 16.2

###

Task for the reader: assign each of the following molecules its reported Papp B→A.
assay.details: Permeability test using Caco-2 cell model
recorded.conditions: human
// return numeric value only (unit: ×10⁻⁶ cm/s, not printed)

**Q:** I'd like to know its Papp B→A. The molecule in question is CC(C)NCC(O)COc1cccc2ccccc12 (centres unmarked) [Propranolol, reference compound]
**A:** 7.57

**Q:** I'd like to know its Papp B→A. The molecule in question is C[C@H]1O[C@@H](O[C@H]2[C@@H](O)C[C@H](O[C@H]3[C@@H](O)C[C@H](O[C@H]4CC[C@@]5(C)[C@H](CC[C@@H]6[C@@H]5C[C@@H](O)[C@]5(C)[C@@H](C7=CC(=O)OC7)CC[C@]65O)C4)O[C@@H]3C)O[C@@H]2C)C[C@H](O)[C@@H]1O [Digoxin, reference compound]
**A:** 9.88

###

assay.details: in vitro
recorded.conditions: human, Caco-2
recorded.metric: Papp B→A at 50 μM
A bare number is not enough; add the unit after it.

**Q:** I'd like to know its Papp B→A at 50 μM. The compound in question is CC1CN(C(=O)c2cc(Cc3n[nH]c(=O)c4ccccc34)ccc2F)Cc2nnc(C(F)(F)F)n21 (stereo not shown)
**A:** 18.7 ×10⁻⁶ cm/s

###

System: P-gp
assay.details: in vitro
recorded.conditions: human, Caco-2
recorded.metric: efflux ratio at 2 μM
No unit in the answer, please; the number alone is enough.

**Q:** I'd like to know its efflux ratio at 2 μM. The compound in question is CC1CN(C(=O)c2cc(Cc3n[nH]c(=O)c4ccccc34)ccc2F)Cc2nnc(C(F)(F)F)n21 (stereo not shown)
**A:** 22.6

###

assay.details: Solubility of SOMCL-9112 API and solid dispersions in water and buffers (37° C., shaking)
Type: physicochemical
recorded.conditions: 37 °C, pH 6.8, fassgf or other biorelevant, thermodynamic from solid
recorded.metric: solubility at 8 h (µg/mL)
// return numeric value only (unit: µg/mL, not printed)

**Q:** I'd like to know its solubility at 8 h. The molecule in question is CC1CN(C(=O)c2cc(Cc3n[nH]c(=O)c4ccccc34)ccc2F)Cc2nnc(C(F)(F)F)n21 (stereo not shown)
**A:** 15.4

###

assay.details: Solubility of SOMCL-9112 API and solid dispersions in water and buffers (37° C., shaking)
Format: physicochemical
recorded.conditions: 37 °C, pH 1.2, simulated gastric fluid, thermodynamic from solid
recorded.metric: solubility at 8 h (µg/mL)
// return numeric value only (unit: µg/mL, not printed)

**Q:** I'd like to know its solubility at 8 h. The compound in question is CC1CN(C(=O)c2cc(Cc3n[nH]c(=O)c4ccccc34)ccc2F)Cc2nnc(C(F)(F)F)n21 (stereo not shown)
**A:** 10.5
